read-out: Intercellular Adhesion Molecule 1 (ICAM1), ICAM1 (gene 3383); test: BSK_KF3CT_ICAM1: BioMAP Diversity Plus: KF3CT Assay for Intercellular Adhesion Molecule 1 (ICAM1) Biomarker Activity (AID 2283067); settings: primary human keratinocytes with fibroblasts; actives raise or lower the signal
Calls of active or inactive are those of the source. Rule for the calls: active = hit-call score of the fitted dose curve at least 0.9, where 1 is the maximum; inactive = score below 0.9.
Allowed answers: Yes = active, No = inactive

Smi: NNC(=O)c1ccncc1
Discrete label: No

Inquiry: Dear all, I need the recorded test outcome for `CCN(CC)C(=S)SSC(=S)N(CC)CC` , thank you.
Reply text: Yes

Inquiry: What do we get for `CCOC(N)=O` ?
Reply text: No

Inquiry: What do we get for `Cc1ncc([C@@H](CCCCCCc2ccc3c(n2)NCCC3)CC(=O)O)cn1` ?
Reply text: No

----------
read-out: Monocyte Chemoattractant Protein-1 (MCP1), CCL2 (gene 6347); assay: BSK_SAg_MCP1: BioMAP Diversity Plus: SAg Assay for Monocyte Chemoattractant Protein-1 (MCP1) Biomarker Activity (AID 2283090); conditions: primary human HUVEC with PBMC; actives raise or lower the signal
Active and inactive are the calls of the source. How the source made its calls: active means hit-call score of the fitted dose curve at least 0.9, where 1 is the maximum; inactive means score below 0.9.
Allowed answers: Y = active, N = inactive

Compound: CC(=O)c1ccccc1
Discrete label: N
--
Compound: OC[C@H]1O[C@@](CO)(O[C@H]2O[C@H](CO)[C@@H](O)[C@H](O)[C@H]2O)[C@@H](O)[C@@H]1O
Discrete label: N
--
Compound: CCc1cccc(CC)c1N
Discrete label: N
--
Compound: NC(=O)N(O)[C@@H]1COc2cc(OCc3ccccc3)ccc21
Discrete label: N
--
Compound: O=C(O)c1cccc(C(=O)O)c1
Discrete label: N
--
Compound: O=S1(=O)CCCO1
Discrete label: N

Inquiry: Dear all, I need the recorded test outcome for `COc1cc(C(C)C)c2c(c1)S(=O)(=O)N(COc1cc(=O)n3cccc(OCCN4CCCCC4)c3n1)C2=O` , thank you.
Reply text: Y

Inquiry: What do we get for CC(C)CCCCCCOC(=O)C1CCCCC1C(=O)OCCCCCCC(C)C (configuration not stated) ?
Reply text: N

----------
experiment: BSK_4H_SRB: Viability Assessment in the BioMAP Diversity Plus: 4H Assay (AID 2283027); settings: primary human endothelial cells (HUVEC);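 note: cells exposed to compound for 24 h before staining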
Calls of active or inactive are those of the source. Rule for the calls: active = hit-call score of the fitted dose curve at least 0.9, where 1 is the maximum; inactive = score below 0.9.
Allowed answers: Y (active), N (inactive)

Molecule: COc1cc(C(C)C)c2c(c1)S(=O)(=O)N(COc1cc(=O)n3cccc(OCCN4CCCCC4)c3n1)C2=O
Discrete label: N

Inquiry: Dear all, I need the recorded test outcome for `CCCCCCCCN(C)C` , thank you.
Reply text: N

Inquiry: What do we get for `OCc1ccccc1` ?
Reply text: N

Inquiry: What do we get for CC(C)CC(C)O (stereo unspecified) ?
Reply text: N

Inquiry: What do we get for CCCCCCCC1CCC(=O)O1 (stereo unspecified) ?
Reply text: N

Inquiry: What do we get for `c1ccc2cc3ccccc3cc2c1` ?
Reply text: N

Inquiry: What do we get for `COCc1nnc(-c2ccc[n+]([O-])c2)n1-c1c(Cl)c(Cl)cc2[nH]c(=O)c(=O)[nH]c12` ?
Reply text: N

Inquiry: What do we get for `CC[C@H](C)C(=O)O[C@H]1C[C@H](O)C=C2C=C[C@H](C)[C@H](CC[C@@H](O)C[C@@H](O)CC(=O)O)[C@H]21` ?
Reply text: N

Inquiry: What do we get for `OC(CCl)CCl` ?
Reply text: N

Inquiry: What do we get for `O=C(O)c1cccc(C(=O)O)c1` ?
Reply text: N

Inquiry: What do we get for `O=C(O)c1ccc2c(c1)nc(C(=O)NC1CCN(C3CC3)CC1)n2Cc1cc(-c2ccc(Cl)s2)on1` ?
Reply text: N

Inquiry: What do we get for `O=C1CN(N=Cc2ccc([N+](=O)[O-])o2)C(=O)N1` ?
Reply text: N

Inquiry: What do we get for `NC(=O)NN=Cc1ccc([N+](=O)[O-])o1` ?
Reply text: N

Inquiry: What do we get for `CCCc1ccccc1` ?
Reply text: N

Inquiry: What do we get for `C=CCc1cc(S(=O)(=O)c2ccc(O)c(CC=C)c2)ccc1O` ?
Reply text: Y

Inquiry: What do we get for `c1ccc2ncccc2c1` ?
Reply text: N

Inquiry: What do we get for `Cc1cccc(O)c1C` ?
Reply text: N

Inquiry: What do we get for `NNC(=O)c1ccncc1` ?
Reply text: N

Inquiry: What do we get for `CCCC(CCC)C(=O)O` ?
Reply text: N

Inquiry: What do we get for `CCc1cccc(CC)c1N` ?
Reply text: N

Inquiry: What do we get for `CCCCCCCC/C=C\CCCCCCCC(=O)OC[C@@H](O)[C@H]1OC[C@H](O)[C@H]1O` ?
Reply text: N

Inquiry: What do we get for `NCC(F)(F)C(F)(F)C(F)(F)C(F)(F)F` ?
Reply text: N
